Each recorded value in this set is attributed to patent US20040224958A1.

Target: cdc2/cyclinB (Homo sapiens)
Sequence (P06493 whole entry): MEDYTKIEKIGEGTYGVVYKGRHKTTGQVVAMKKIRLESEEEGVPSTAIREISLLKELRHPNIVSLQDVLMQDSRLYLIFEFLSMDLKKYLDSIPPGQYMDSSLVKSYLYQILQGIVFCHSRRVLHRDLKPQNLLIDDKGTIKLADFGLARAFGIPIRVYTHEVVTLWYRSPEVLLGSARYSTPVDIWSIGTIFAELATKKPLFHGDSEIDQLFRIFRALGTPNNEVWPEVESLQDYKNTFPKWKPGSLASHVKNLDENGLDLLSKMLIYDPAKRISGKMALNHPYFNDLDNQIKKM
Sequence (P14635 whole entry, further chain): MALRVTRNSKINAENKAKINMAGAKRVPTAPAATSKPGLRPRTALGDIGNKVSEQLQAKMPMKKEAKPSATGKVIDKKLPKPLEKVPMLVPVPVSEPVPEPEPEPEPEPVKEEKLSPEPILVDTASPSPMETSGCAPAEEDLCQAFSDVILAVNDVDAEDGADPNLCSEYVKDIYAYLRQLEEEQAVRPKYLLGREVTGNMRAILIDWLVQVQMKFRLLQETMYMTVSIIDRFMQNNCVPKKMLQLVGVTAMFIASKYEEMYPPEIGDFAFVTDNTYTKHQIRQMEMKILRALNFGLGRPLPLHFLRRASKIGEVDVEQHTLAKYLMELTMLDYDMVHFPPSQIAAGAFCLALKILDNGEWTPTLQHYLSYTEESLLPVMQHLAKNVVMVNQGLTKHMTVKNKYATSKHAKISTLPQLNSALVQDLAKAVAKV
Assay: Cyclin-Dependent Kinase Assay cdc2/cyclinB
pIC50: −log10 of the molar value.
measuredProperty: pIC50

molecule: CC(C)n1c(=O)ccc2cnc(Nc3ccc(C#N)c(C#N)c3)nc21
pIC50: 5.74

molecule: CCC(CC)n1c(=O)ccc2cnc(Nc3ccc(Br)c(C(F)(F)F)c3)nc21
pIC50: 6.35

molecule: CCCCn1c(=O)ccc2cnc(Nc3ccc(N(C)C(C)=O)cc3)nc21
pIC50: 6.09

molecule: O=c1ccc2cnc(Nc3ccc4[nH]nnc4c3)nc2n1C1CCCC1
pIC50: 7.31

molecule: Cn1c(=O)ccc2cnc(Nc3ccc(NC(=O)OC(C)(C)C)cc3)nc21
pIC50: 5.75

1 = CCC(C)n1c(=O)ccc2cnc(Nc3ccc4c(c3)CCCC4=O)nc21 (stereo not drawn)
2 = CC(C)n1c(=O)ccc2cnc(Nc3cccc([N+](=O)[O-])c3)nc21
Given 1 and 2 , report the one with the higher recorded pIC50. Please reply using the label of the selected record. 1
(1: 7.17, 2: 6.95)
